Data origin, for the record: patent US10335409B2

pKi values recorded for HCV NS3 protease domain genotype 3a (Hepatitis C virus genotype 3a)
Note on pKi: it is the negative log10 of concentration, concentration in mol/L.

Query: For the molecule COc1ccc2nc3c(nc2c1)O[C@H]1CN(C(=O)[C@H](C(C)(C)C)NC(=O)O[C@@H]2CCC[C@H]2CCCCC3)[C@H](C(=O)N[C@]2(C(=O)NS(=O)(=O)C3(C)CC3)C[C@H]2C(F)F)[C@@H]1C , give its reported pKi.
Result: 10.10

***
Query: Dear colleague, please send me the reported pKi for CC[C@@H]1[C@@H]2CN(C(=O)[C@H](C(C)(C)C)NC(=O)O[C@@]3(C(F)(F)F)CCC[C@H]3CCCCCc3nc4ccc(OC)cc4nc3O2)[C@@H]1C(=O)N[C@]1(C(=O)NS(=O)(=O)C2CC2)C[C@H]1C(F)F when you can.
Result: 8.92
